The reported measurements were obtained from ChEMBL document CHEMBL3988442.

Tested on: Mycobacterium tuberculosis
Assay Text: Cornell - Phenotypic assay to identify agents that inhibit growth of Mycobacterium tuberculosis
Format: functional
Parameters: scale not given: direction of the effect not stated beside the values
Measurement Setup: 10 mM as filed; unlikely as a test dose
The campaign covered roughly 53,000 compounds. About 900 (1.7%) showed an effect of 50% or more. What follows is part of a selection rich in strong results, with near analogues and random picks from the rest.
Would you please tag the item TRUE when its Percent Effect is 10% or above, and FALSE when it is below?

Cc1cccc(C(=O)N2C[C@@H](OCc3ccncc3)[C@@H]3OCCC[C@@H]32)n1.O=C(O)C(F)(F)F.O=C(O)C(F)(F)F: TRUE
CC(C)c1cc(=O)[nH]c(C(C)(C)N)n1.Cl: FALSE
CNC(=O)c1cccc(CC2COCCN(Cc3ccsc3)C2)n1 (stereo not given): FALSE
CC(C)c1cc(=O)[nH]c(-n2nc(C3CC3)cc2N)n1: TRUE

For the next question, use this molecule.
Answer whether Percent Effect of `CCCc1cc(=O)[nH]c(-c2cccc(CN3CCCCCC3)c2)n1` is greater than or equal to 10%.
TRUE
